- test_system: Link_TSG6 (Homo sapiens, UniProt P98066)
- Construct: made in house
- Sequence (P98066 36-129 limits assumed): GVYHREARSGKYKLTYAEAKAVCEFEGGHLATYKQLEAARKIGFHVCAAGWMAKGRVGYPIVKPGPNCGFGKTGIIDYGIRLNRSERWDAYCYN
- measurement_notes: ITC of HA oligosaccharides binding to Link_TSG6
- experimental_context: Table 1; ITC, 25 °C, 5 mM MES pH 6.0; mean ± SEM
observable: ΔG

Answered cases to consult:
Item `CC(=O)N[C@H]1[C@H](O[C@H]2[C@H](O)[C@@H](O)[C@H](O[C@H]3[C@H](O)[C@@H](CO)O[C@@H](O[C@H]4[C@H](O)[C@@H](O)[C@H](O[C@@H]([C@H](O)[C@H](O)CO)[C@H](CNc5ccccc5C(=O)O)NC(C)=O)O[C@@H]4C(=O)O)[C@@H]3NC(C)=O)O[C@@H]2C(=O)O)O[C@H](CO)[C@@H](O)[C@@H]1O[C@@H]1O[C@H](C(=O)O)[C@@H](O)[C@H](O)[C@H]1O` with Link_TSG6 (Homo sapiens, UniProt P98066) - ΔG?
-8.50 ± 0.04 kcal/mol

Item `CC(=O)N[C@H]1[C@H](O[C@H]2[C@H](O)[C@@H](O)[C@H](O[C@H]3[C@H](O)[C@@H](CO)O[C@@H](O[C@H]4[C@H](O)[C@@H](O)[C@H](O[C@H]5[C@H](O)[C@@H](CO)O[C@@H](O[C@H]6[C@H](O)[C@@H](O)[C@H](O[C@@H]([C@H](O)[C@H](O)CO)[C@H](CNc7ccc(C(=O)O)cc7)NC(C)=O)O[C@@H]6C(=O)O)[C@@H]5NC(C)=O)O[C@@H]4C(=O)O)[C@@H]3NC(C)=O)O[C@@H]2C(=O)O)O[C@H](CO)[C@@H](O)[C@@H]1O[C@@H]1O[C@H](C(=O)O)[C@@H](O)[C@H](O)[C@H]1O` with Link_TSG6 (Homo sapiens, UniProt P98066) - ΔG?
-8.37 ± 0.04 kcal/mol

Now for the compound whose ΔG we want.
Item `CC(=O)N[C@H]1[C@H](O[C@H]2[C@H](O)[C@@H](O)[C@H](O[C@H]3[C@H](O)[C@@H](CO)O[C@@H](O[C@H]4[C@H](O)[C@@H](O)[C@H](O[C@H]5[C@H](O)[C@@H](CO)O[C@@H](O[C@H]6[C@H](O)[C@@H](O)[C@H](O[C@@H]([C@H](O)[C@H](O)CO)[C@H](CNc7ccccc7C(=O)O)NC(C)=O)O[C@@H]6C(=O)O)[C@@H]5NC(C)=O)O[C@@H]4C(=O)O)[C@@H]3NC(C)=O)O[C@@H]2C(=O)O)O[C@H](CO)[C@@H](O)[C@@H]1O[C@@H]1O[C@H](C(=O)O)[C@@H](O)[C@H](O)[C@H]1O` with Link_TSG6 (Homo sapiens, UniProt P98066) - ΔG?
-7.83 ± 0.13 kcal/mol
